Tested on: HCC1143
Measurement description: normalised viability (% of control), CellTiter-Blue; higher = more viable cells (about 100 = DMSO control)
Applied conditions: 10 nM; incubation time: 72 h
Recorded endpoint: normalised viability (%)
Give bare numbers, in %.

Illustrative cases are given below, each with its answer.
O=P(O)(NCCCl)NCCCl [Ifosfamide mustard] | 99.6
O=C(c1ccc(OCCN2CCCCC2)cc1)c1c(-c2ccc(O)cc2)sc2cc(O)ccc12 | 114
C#Cc1cccc(Nc2ncnc3cc(OC)c(OCCCCCCC(=O)NO)cc23)c1 | 78.3
c1ccc(C2CN3CCSC3=N2)cc1 (stereo not drawn) | 105
CN1CCN(c2ccc3nc(-c4c(N)c5c(F)cccc5[nH]c4=O)[nH]c3c2)CC1 | 86.9

Below is a list of compounds. For each, state its recorded normalised viability.
1. COc1cc(Nc2ncc(F)c(Nc3ccc4c(n3)NC(=O)C(C)(C)O4)n2)cc(OC)c1OC
2. COc1ccc(C2=N[C@@H](c3ccc(Cl)cc3)[C@@H](c3ccc(Cl)cc3)N2C(=O)N2CCNC(=O)C2)c(OC(C)C)c1

1: 81.2; 2: 77.6

Query (compound): `CCCC(CCC)C(=O)O` ; field requested: normalised viability 110

====

Test system: MCF-10A
Measurement description: normalised response (% of control), CellTox Green; higher = less cell death (100 = DMSO, 0 = benzethonium chloride kill control)
Applied conditions: incubation time: 72 h
Recorded endpoint: normalised response
Output should be the measured figure followed by the unit it is expressed in.

Below is a list of compounds. For each, state its recorded normalised response.
1. O=c1[nH]cc(F)c(=O)[nH]1 [Fluorouracil] (100 nM)
2. CC(C)C[C@H](NC(=O)[C@H](Cc1ccccc1)NC(=O)c1cnccn1)B(O)O [Bortezomib] (100 nM)
3. COc1ccc(C2=N[C@@H](c3ccc(Cl)cc3)[C@@H](c3ccc(Cl)cc3)N2C(=O)N2CCNC(=O)C2)c(OC(C)C)c1 [Nutlin-3] (1000 nM)
4. O=c1[nH]cc(F)c(=O)[nH]1 [Fluorouracil] (10000 nM)

1: 114%; 2: 74%; 3: 84%; 4: 75.7%

====

Would you kindly list normalised viability for each of these molecules?
System: HCC1937
Measurement description: normalised viability (% of control), CellTiter-Blue; higher = more viable cells (about 100 = DMSO control)
Applied conditions: 10 nM; incubation time: 72 h
One number for each entry, in %.

Below is a list of molecules. For each, state its recorded normalised viability.
1. CC(C)(C)c1cc(NC(=O)Nc2ccc(-c3cn4c(n3)sc3cc(OCCN5CCOCC5)ccc34)cc2)no1
2. COc1ncc(-c2ccc3nccc(-c4ccnnc4)c3c2)cc1NS(=O)(=O)c1ccc(F)cc1F
3. CCS(=O)(=O)c1cccc(-c2cc(C(=O)NC3CCN(C)CC3)c(C)c3[nH]c4ncc(C)cc4c23)c1

1. 81.7
2. 78.5
3. 120

====

Test system: CAL-120
Applied conditions: 72 h
Recorded endpoint: EC50, CellTiter-Glo (µM)
Give bare numbers, in µM.

Illustrative cases are given below, each with its answer.
O=c1[nH]c(=O)n([C@H]2C[C@H](O)[C@@H](CO)O2)cc1F | 0.42
C[C@@]1(C(=O)Nc2ccc(F)nc2)CCCN1c1nc(Nc2cc(C3CC3)n[nH]2)c2cccn2n1 | 1.25

Query (compound): `C#Cc1cccc(Nc2ncnc3cc(OC)c(OCCCCCCC(=O)NO)cc23)c1` ; field requested: EC50, CellTiter-Glo 3.23
